Taken from patent US9663526B2.

- ASSAY_SYSTEM: recombinant human kinase domain of TYK2 (Homo sapiens (Human), UniProt P29597)
- Sequence (P29597 897-1176): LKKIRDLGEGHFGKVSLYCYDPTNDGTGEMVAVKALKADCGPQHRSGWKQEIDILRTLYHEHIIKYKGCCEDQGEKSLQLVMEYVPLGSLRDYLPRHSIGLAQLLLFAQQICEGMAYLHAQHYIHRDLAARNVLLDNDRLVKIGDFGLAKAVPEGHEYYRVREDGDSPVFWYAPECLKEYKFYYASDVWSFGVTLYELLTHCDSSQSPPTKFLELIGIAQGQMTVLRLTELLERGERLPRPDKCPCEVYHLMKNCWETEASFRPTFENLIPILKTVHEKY
- EXPERIMENT_SUMMARY: JAK Caliper enzyme assay at 1 mM ATP (TYK2);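 further: microfluidic mobility-shift readout of synthetic peptide phosphorylation by TYK2, tuned to 20–30% conversion at room temperature, reaction stopped with EDTA, DMSO-only wells as uninhibited baseline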
- Type: biochemical
- EXPERIMENTAL_SETUP: 1 mM ATP; read-out: IC50 (nM) TYK2
A collection of molecules and their measured IC50
RESULT_TYPE: IC50

INSERT INTO measurements (molecule, result_type, result) VALUES
  ('CC(CC#N)N1[C@@H]2CC[C@H]1CN(c1ccnc(Nc3cnn(C)c3)n1)C2 (some centres unmarked) [Example 81]', 'IC50', '199 nM'),
  ('Cn1cc(Nc2nccc(N3C[C@H]4CC[C@@H](C3)N4C[C@H]3C[C@@H]3C#N)n2)cn1 [Example 70]', 'IC50', '261 nM'),
  ('Cn1cc(Nc2nccc(N3C[C@H]4CC[C@@H](C3)N4C(=O)C3CC(F)(F)C3)n2)cn1', 'IC50', '136 nM'),
  ('Cn1cc(Nc2nccc(N3C[C@H]4CC[C@@H](C3)N4C(=O)C3(F)CC3)n2)cn1', 'IC50', '84 nM'),
  ('Cn1cc(Nc2nccc(N3C[C@H]4CC[C@@H](C3)N4C[C@@H]3CC3(F)F)n2)cn1', 'IC50', '41 nM'),
  ('Cn1cc(Nc2nccc(N3C[C@H]4CC[C@@H](C3)N4C(N)=O)n2)cn1', 'IC50', '662 nM'),
  ('CNC(=O)c1ncc(Nc2nccc(N3C[C@H]4CC[C@@H](C3)N4C(=O)C3CC3)n2)cc1C', 'IC50', '36 nM'),
  ('Cn1cc(Nc2nccc(N3C[C@H]4CC[C@@H](C3)N4C(=O)Nc3ccc(C(F)(F)F)cn3)n2)cn1', 'IC50', '964 nM');

###

- ASSAY_SYSTEM: recombinant human kinase domain of JAK3 (Homo sapiens (Human), UniProt P52333)
- Sequence (P52333 822-1111): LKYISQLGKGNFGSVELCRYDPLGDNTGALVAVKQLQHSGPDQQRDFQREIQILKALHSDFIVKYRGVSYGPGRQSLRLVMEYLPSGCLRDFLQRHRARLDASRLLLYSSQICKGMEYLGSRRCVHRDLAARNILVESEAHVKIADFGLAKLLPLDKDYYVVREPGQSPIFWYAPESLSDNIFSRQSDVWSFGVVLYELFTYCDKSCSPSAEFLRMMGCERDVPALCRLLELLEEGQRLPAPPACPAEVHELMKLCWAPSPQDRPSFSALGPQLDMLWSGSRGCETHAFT
- EXPERIMENT_SUMMARY: JAK Caliper enzyme assay at 1 mM ATP (JAK3);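 further: microfluidic mobility-shift readout of synthetic peptide phosphorylation, percent product converted from peak heights, normalized to DMSO-only wells as uninhibited baseline, room temperature incubation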
- Format: biochemical
- EXPERIMENTAL_SETUP: 1 mM ATP; read-out: IC50 (nM) JAK3
As shown below, each of these compounds has a reported IC50 value.
RESULT_TYPE: IC50 (nM)

INSERT INTO results (molecule, assay_system, result_type, cmp, measured_number) VALUES
  ('C[C@@H]1[C@@H]2CN(c3nc(Nc4cnn(C5COC5)c4)ncc3F)C[C@]12NC(=O)[C@@H]1CC1(F)F', 'recombinant human kinase domain of JAK3 (Homo sapiens (Human), UniProt P52333)', 'IC50', '=', 4940),
  ('CCNC(=O)c1ccc(Nc2ncc(F)c(N3C[C@H]4CC[C@@H](C3)N4C(=O)C(F)(F)F)n2)cc1C', 'recombinant human kinase domain of JAK3 (Homo sapiens (Human), UniProt P52333)', 'IC50', '=', 411),
  ('CNC(=O)c1ncc(Nc2nccc(N3C[C@H]4CC[C@@H](C3)N4C(=O)[C@@H]3C[C@H]3C#N)n2)cc1Cl', 'recombinant human kinase domain of JAK3 (Homo sapiens (Human), UniProt P52333)', 'IC50', '>', 10000),
  ('Cn1cc(Nc2nccc(N3C[C@H]4CC[C@@H](C3)N4C(=O)[C@H]3C[C@H]3C#N)n2)cn1', 'recombinant human kinase domain of JAK3 (Homo sapiens (Human), UniProt P52333)', 'IC50', '>', 10000);
